Biological target: 5-HT1C binding site (Sus scrofa)
Construct: Pooled pig choroid plexi were homogenised; from tissue; host or cells: pig choroid plexus membranes
Sequence (K7GSR7 1-457): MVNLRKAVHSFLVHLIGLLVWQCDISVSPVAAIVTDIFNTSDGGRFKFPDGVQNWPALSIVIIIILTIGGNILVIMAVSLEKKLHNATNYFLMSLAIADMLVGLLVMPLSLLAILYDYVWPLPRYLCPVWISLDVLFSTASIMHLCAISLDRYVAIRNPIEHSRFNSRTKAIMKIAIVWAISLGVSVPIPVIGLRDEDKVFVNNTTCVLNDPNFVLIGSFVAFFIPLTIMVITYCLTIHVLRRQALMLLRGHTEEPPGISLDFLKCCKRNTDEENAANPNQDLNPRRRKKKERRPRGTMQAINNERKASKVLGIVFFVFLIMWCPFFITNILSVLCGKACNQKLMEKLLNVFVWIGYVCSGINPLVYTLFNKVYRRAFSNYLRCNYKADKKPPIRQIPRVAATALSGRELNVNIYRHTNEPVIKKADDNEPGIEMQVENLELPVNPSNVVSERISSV
Test: [^3 H]-mesulergine binding to pig choroid plexus membranes in vitro
Structures can show the parent of a compound that is named as a salt.
readout label: pKi
Numbers only, as −log10 of the molar value.

Cn1ccc2c(NC(=O)Nc3cccnc3)cccc21 [E5, hydrochloride] = 6.70

Consider the following items and state reported pKi for each.
1. Cn1ccc2ccc(NC(=O)Nc3cccnc3)cc21 [E6, hydrochloride]
2. CCCn1ccc2cc(NC(=O)Nc3cccnc3)ccc21 [E4, oxalate]
3. CCc1c(C)n(C)c2ccc(NC(=O)Nc3cccnc3)cc12 [E1, hydrochloride]
4. Cc1c(C)n(C)c2ccc(NC(=O)Nc3cccnc3)cc12 [E3, hydrochloride]

*A*
[6.50, 6.70, 7.60, 6.70]
